target: Recombinant GMPPNP-loaded KRAS G12C (KRAS-G12C(ON), active form) (Homo sapiens, UniProt P01116, G12C); assay: KRAS G12C RAF Disruption Assay (HTRF); type: biochemical; conditions: GMPPNP-loaded KRAS G12C 5 nM, GST-RAF1 RBD 9 nM, values given in μM, read-out: KRASG12C RAF Disruption Assay (IC50)
Sequence (P01116 1-188 isoform P01116-2 G12C): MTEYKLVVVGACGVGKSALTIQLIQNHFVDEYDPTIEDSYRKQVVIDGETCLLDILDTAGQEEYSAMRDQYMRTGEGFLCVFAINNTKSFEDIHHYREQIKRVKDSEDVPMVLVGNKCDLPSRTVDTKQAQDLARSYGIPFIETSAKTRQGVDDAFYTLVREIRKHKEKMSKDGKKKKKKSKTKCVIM
Value Type: IC50 (µM)
All answers are understood in µM, so give the number only.

[Q] Entry C[C@H]1CN(C(=O)/C(F)=C/c2ncccn2)CCN1c1nc(OC[C@@H]2CCCN2C)nc2c(F)c(-c3cccc4cccc(Cl)c34)c(Cl)cc12 [Example 2] : reported IC50 = ?
[A] 61.3

[Q] Then C#Cc1c(F)ccc2cc(O)cc(-c3c(Cl)cc4c(N5CC6CCC(C5)N6C(=O)/C(F)=C/c5ccccn5)nc(OC[C@@H]5CCCN5C)nc4c3F)c12 (single isomer, unassigned) [Example 20, Isomer 1] ?
[A] 16.5

[Q] Next: Cc1cc(N)nc(-c2c(Cl)cc3c(N4CC5CCC(C4)N5C(=O)/C(F)=C/c4nccs4)nc(OCC4(CN5CCCCC5)CC4)nc3c2F)c1C(F)(F)F [Example 11]
[A] 5.3

###

target: Recombinant GMPPNP-loaded KRAS G12C (KRAS-G12C(ON), active form) (Homo sapiens, UniProt P01116, G12C); assay: KRAS G12C RAF Disruption Assay (HTRF); type: biochemical; settings: GMPPNP-loaded KRAS G12C 5 nM, GST-RAF1 RBD 9 nM, values given in μM, read-out: KRASG12C RAF Disruption Assay (IC50)
Value Type: IC50 (µM)
// note: answer is a bare numeric in µM

[Q] Returns the measured IC50 for the input compound. Input: Cc1cc(N)nc(-c2c(Cl)cc3c(N4CCC5C(C4)CN5C(=O)/C(F)=C/c4nccs4)nc(OC[C@]45CCCN4C[C@H](F)C5)nc3c2F)c1C(F)(F)F (some centres unmarked) [Example 16]
[A] 4.2

[Q] Try this compound next: Cc1cc(N)nc(-c2c(Cl)cc3c(N4CC5CCC(C4)N5C(=O)/C(F)=C/c4ccccn4)nc(OC[C@]45CCCN4C[C@H](F)C5)nc3c2F)c1C(F)(F)F (single isomer, unassigned) [Example 5]
[A] 2.7

[Q] How about this compound: Cc1cc(N)nc(-c2c(Cl)cc3c(N4CCC5(CN(C(=O)/C(F)=C/c6nccs6)C5)C4)nc(OC[C@@]45CCCN4C[C@H](F)C5)nc3c2F)c1C(F)(F)F (atropisomer, axis not shown; (M)) [Example 9]
[A] 1.9

[Q] Repeat with C[C@H]1CN(C(=O)/C(F)=C/c2ccccn2)CCN1c1nc(OC[C@@H]2CCCN2C)nc2c(F)c(-c3cccc4cccc(Cl)c34)c(Cl)cc12 (single isomer, unassigned) [Example 3]
[A] 5.5

[Q] Also need Cc1cc(N)nc(-c2c(Cl)cc3c(N[C@H]4C[C@@H](NC(=O)/C(F)=C/c5nccs5)C4)nc(OC[C@]45CCCN4C[C@H](F)C5)nc3c2F)c1C(F)(F)F (atropisomer, axis not shown; (M)) [Example 13] , thanks.
[A] 1.1

###

Provide the recorded IC50 for the entries that follow.
target: Recombinant GMPPNP-loaded KRAS G12C (KRAS-G12C(ON), active form) (Homo sapiens, UniProt P01116, G12C); assay: KRAS G12C RAF Disruption Assay (HTRF); format: biochemical; conditions: GMPPNP-loaded KRAS G12C 5 nM, GST-RAF1 RBD 9 nM, values in nM, read-out: KRASG12C RAF Disruption Assay (IC50)
Response body: numeric value in nM, unit text excluded.

[Q] Any idea what IC50 was measured for Cc1cc(N)nc(-c2c(Cl)cc3c(N4CCC(CNC(=O)C(F)=Cc5ccccn5)CC4)nc(OCC4CCCN4C)nc3c2F)c1C(F)(F)F (stereo not shown) ?
[A] 350

[Q] Repeat for the following compound: `CN1CCC[C@H]1COc1nc(N2CCN(C(=O)/C(F)=C/c3ccccn3)[C@@H](CC#N)C2)c2ccc(-c3cccc4cccc(C#N)c34)c(F)c2n1`
[A] 1600

[Q] And `CN1CCC[C@H]1COc1nc(N2CCN(C(=O)/C(F)=C/c3ncccn3)[C@@H](CC#N)C2)c2ccc(-c3cc(Cl)ccc3OC(F)(F)F)c(F)c2n1` ?
[A] 4700

[Q] // next record `C#Cc1cccc2cccc(-c3ccc4c(N(C)[C@@H]5CCN(C(=O)/C(F)=C/c6nccs6)C5)nc(OC[C@@]56CCCN5C[C@H](F)C6)nc4c3F)c12`
[A] 40

[Q] Then what about the compound `COc1ccc(Cl)cc1-c1ccc2c(N3CCN(C(=O)/C(F)=C/c4ccccn4)[C@@H](CC#N)C3)nc(OC[C@@H]3CCCN3C)nc2c1F` ?
[A] 2800

[Q] Follow-up item: Cc1cc(N)nc(-c2c(Cl)cc3c(N4C[C@]5(NC(=O)/C(F)=C/c6ccccn6)CC[C@H]4C5)nc(OC[C@]45CCCN4C[C@H](F)C5)nc3c2F)c1C(F)(F)F (atropisomer, axis not shown; (M))
[A] 190

[Q] Also, `Cc1ccc2[nH]ncc2c1-c1ccc2c(N3CCN(C(=O)/C(F)=C/c4nccs4)[C@@H](CC#N)C3)nc(OC[C@@H]3CCCN3C)nc2c1F` please.
[A] 160

[Q] Field entry: `Cc1cc2[nH]ncc2c(-c2ccc3c(N(C)[C@@H]4CCN(C(=O)/C(F)=C/c5nccs5)C4)nc(OC[C@@]45CCCN4C[C@H](F)C5)nc3c2F)c1Cl`
[A] 98

[Q] Now try `Cc1ccc2[nH]ncc2c1-c1ccc2c(N3CCN(C(=O)/C(F)=C/c4ccccn4)[C@@H](CC#N)C3)nc(OC[C@@]34CCCN3C[C@H](F)C4)nc2c1F` .
[A] 50

[Q] What do we get for `Cc1cccc(/C=C(\F)C(=O)N2CCN(c3nc(OC[C@@H]4CCCN4C)nc4c(F)c(-c5cc(O)cc6ccccc56)ccc34)C[C@@H]2CC#N)n1` ?
[A] 27

[Q] Now the compound `N#CC[C@H]1CN(c2nc(OC[C@@]34CCCN3C[C@H](F)C4)nc3c(F)c(-c4cccc5cccc(Cl)c45)ccc23)CCN1C(=O)/C(F)=C/c1ncccn1`
[A] 88

[Q] Please give the result for `Cc1ccc2[nH]ncc2c1-c1ccc2c(N3CCN(C(=O)/C(F)=C/c4ccccn4)[C@@H](CC#N)C3)nc(OC[C@@H]3CCCN3C)nc2c1F` too.
[A] 100

[Q] Moving on to the next compound: `C#Cc1cccc2cccc(-c3ccc4c(N(C)[C@@H]5CCN(C(=O)/C(F)=C/c6ccccn6)C5)nc(OC[C@@]56CCCN5C[C@H](F)C6)nc4c3F)c12`
[A] 20

[Q] # repeat for `COCCCN1CCC(Oc2nc(N3CCN(C(=O)/C(F)=C/c4nccs4)[C@@H](CC#N)C3)c3ccc(-c4cccc5cccc(Cl)c45)c(F)c3n2)CC1`
[A] 1500

[Q] Also check `C#Cc1c(F)ccc2cc(O)cc(-c3ccc4c(N5C[C@H]6CC[C@@H](C5)N6C(=O)/C(F)=C/c5ccccn5)nc(OC[C@@H]5CCCN5C)nc4c3F)c12`
[A] 260

[Q] Thanks! And `C#Cc1c(F)ccc2cc(O)cc(-c3ccc4c(N5CCN(C(=O)/C(F)=C/c6nccs6)CC5)nc(OC[C@@]56CCCN5C[C@H](F)C6)nc4c3F)c12` ?
[A] 2

[Q] What do you have for `C#Cc1c(F)ccc2cc(O)cc(-c3ccc4c(N5C[C@H]6CC[C@@H](C5)N6C(=O)/C(F)=C/c5ccccn5)nc(OC[C@]56CCC[C@H]5N(C)CCC6)nc4c3F)c12` ?
[A] 6.4

[Q] Also check `CCc1cccc2cccc(-c3ccc4c(N5CCN(C(=O)/C(F)=C/c6nccs6)[C@@H](CC#N)C5)nc(OC[C@@H]5CCCN5C)nc4c3F)c12`
[A] 170

[Q] # repeat for `CN1CCC[C@H]1COc1nc(N2C[C@H]3CC[C@@H](C2)N3C(=O)/C(F)=C/c2ccccn2)c2ccc(-c3ccc(F)c4sc(N)nc34)c(F)c2n1`
[A] 550
